# Tested on: Acinetobacter baumannii ATCC 17978
# ASSAY INFO: Antimicrobial susceptibility testing: 90% growth inhibitory concentration (IC90) determination
# Format: cell-based
# SETUP CONDITIONS: Acinetobacter baumannii, ATCC17978, 16 h, 90% growth inhibitory concentration; Acinetobacter baumannii ATCC17978; Iso-Sensitest broth, OD 600 nm over 16h; read-out: ATCC17978 IC90
Structures can show the parent of a compound that is named as a salt.
READOUT: IC90 (nM)
Entry rule: numbers only, all in nM.

The examples below pair each entry with its known result.
[
  {
    "MOLECULE": "COc1ccc(-c2cnc3c(Nc4ccc(C(=O)NCCCCCNC(=O)OC(C)(C)C)c(C)c4)nccn23)cc1",
    "TEST TARGET": "Acinetobacter baumannii ATCC 17978",
    "UNIT NAME": "nM",
    "IC90": 1100
  },
  {
    "MOLECULE": "CCc1cc(Nc2nccn3c(-c4ccc(Oc5ccncn5)c(F)c4F)cnc23)ccc1C(=O)NCCNC(=O)[C@H](N)CCNC(=N)N",
    "TEST TARGET": "Acinetobacter baumannii ATCC 17978",
    "UNIT NAME": "nM",
    "IC90": 460
  }
]

Value lookup for IC90; key = COC(=O)[C@@H](N)CCCCNC(=O)c1ccc(Nc2nccn3c(-c4ccc(OC(F)F)cc4)cnc23)cc1C [Example 226, hydrochloride]
1100

Consider the molecule "CCc1cc(Nc2nccn3c(-c4ccc(OCC#CCN)c(F)c4F)cnc23)ccc1C(=O)NCCCN" and give its measured IC90.
2900

Which IC90 reading was recorded for the molecule "CCc1cc(Nc2nccn3c(-c4ccc(Oc5ccccn5)c(F)c4F)cnc23)ccc1C(=O)NCCC(=O)N1CCN[C@H](CO)C1" ?
410

# get_value(readout='IC90', item= "COc1ccc(-c2cnc3c(Nc4ccc(C(=O)N[C@@H](C)CN)c(Cl)c4)nccn23)c(F)c1F" )
270

Give the measured IC90 of "COc1ccc(-c2cnc3c(Nc4ccc(C(=O)N(C)CC(=O)N5CCOCC5)c(C)c4)nccn23)cc1F" .
2000
